Test system: 598228-144-R-J1-PDC complex spheroid viability;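 also: spheroids exposed to the agents for one week before reading; percent of vehicle DMSO control viability so 100% = untreated growth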
Assay: Anticancer human tumor 598228-144-R-J1-PDC patient-derived serous endometrial adenocarcinoma cell line growth inhibition [GQUAD]
Details: second compound 3.16 µM; first compound 0.1 µM; stronger effect = lower value
Measured viability, T/C by item

compound	assayedSystem	readoutUnits	viability, T/C
CC(C)n1c(=O)n(C)c2cnc3cc(F)c(-c4ccc(OCCCN5CCCCC5)nc4)cc3c21 + CN(C)c1ccc(Nc2c3ccc(NC(=O)CCN4CCCC4)cc3nc3cc(NC(=O)CCN4CCCC4)ccc23)cc1	598228-144-R-J1-PDC complex spheroid viability	%	78.3
Nc1ccn(C2OC(CO)C(O)C2(F)F)c(=O)n1 (stereo not given) + Cc1cnc(CNC(=O)c2c(=O)c3ccc(N4CCCN(C)CC4)nc3n3c2sc2ccccc23)cn1	598228-144-R-J1-PDC complex spheroid viability	%	43.2
COc1cccc2c1C(=O)c1c(O)c3c(c(O)c1C2=O)CC(O)(C(=O)CO)CC3OC1CC(N)C(O)C(C)O1 (stereo not given) + Cc1[nH]c2ccc(F)cc2c1-c1nc2c3cccnc3c3ncccc3c2[nH]1	598228-144-R-J1-PDC complex spheroid viability	%	36.8
CC(C)n1c(=O)n(C)c2cnc3cc(F)c(-c4ccc(OCCCN5CCCCC5)nc4)cc3c21 + Cc1[nH]c2ccc(F)cc2c1-c1nc2c3cccnc3c3ncccc3c2[nH]1	598228-144-R-J1-PDC complex spheroid viability	%	47.4
CC1COCCN1c1cc(C2(O)CC3CCC(C2)O3)c2cnn(-c3ccn[nH]3)c2n1 (stereo not given) + Cc1cnc(CNC(=O)c2c(=O)c3ccc(N4CCCN(C)CC4)nc3n3c2sc2ccccc23)cn1	598228-144-R-J1-PDC complex spheroid viability	%	37.9
